biological target: VEGFR-1 (Homo sapiens)
Sequence (P17948 27-1338): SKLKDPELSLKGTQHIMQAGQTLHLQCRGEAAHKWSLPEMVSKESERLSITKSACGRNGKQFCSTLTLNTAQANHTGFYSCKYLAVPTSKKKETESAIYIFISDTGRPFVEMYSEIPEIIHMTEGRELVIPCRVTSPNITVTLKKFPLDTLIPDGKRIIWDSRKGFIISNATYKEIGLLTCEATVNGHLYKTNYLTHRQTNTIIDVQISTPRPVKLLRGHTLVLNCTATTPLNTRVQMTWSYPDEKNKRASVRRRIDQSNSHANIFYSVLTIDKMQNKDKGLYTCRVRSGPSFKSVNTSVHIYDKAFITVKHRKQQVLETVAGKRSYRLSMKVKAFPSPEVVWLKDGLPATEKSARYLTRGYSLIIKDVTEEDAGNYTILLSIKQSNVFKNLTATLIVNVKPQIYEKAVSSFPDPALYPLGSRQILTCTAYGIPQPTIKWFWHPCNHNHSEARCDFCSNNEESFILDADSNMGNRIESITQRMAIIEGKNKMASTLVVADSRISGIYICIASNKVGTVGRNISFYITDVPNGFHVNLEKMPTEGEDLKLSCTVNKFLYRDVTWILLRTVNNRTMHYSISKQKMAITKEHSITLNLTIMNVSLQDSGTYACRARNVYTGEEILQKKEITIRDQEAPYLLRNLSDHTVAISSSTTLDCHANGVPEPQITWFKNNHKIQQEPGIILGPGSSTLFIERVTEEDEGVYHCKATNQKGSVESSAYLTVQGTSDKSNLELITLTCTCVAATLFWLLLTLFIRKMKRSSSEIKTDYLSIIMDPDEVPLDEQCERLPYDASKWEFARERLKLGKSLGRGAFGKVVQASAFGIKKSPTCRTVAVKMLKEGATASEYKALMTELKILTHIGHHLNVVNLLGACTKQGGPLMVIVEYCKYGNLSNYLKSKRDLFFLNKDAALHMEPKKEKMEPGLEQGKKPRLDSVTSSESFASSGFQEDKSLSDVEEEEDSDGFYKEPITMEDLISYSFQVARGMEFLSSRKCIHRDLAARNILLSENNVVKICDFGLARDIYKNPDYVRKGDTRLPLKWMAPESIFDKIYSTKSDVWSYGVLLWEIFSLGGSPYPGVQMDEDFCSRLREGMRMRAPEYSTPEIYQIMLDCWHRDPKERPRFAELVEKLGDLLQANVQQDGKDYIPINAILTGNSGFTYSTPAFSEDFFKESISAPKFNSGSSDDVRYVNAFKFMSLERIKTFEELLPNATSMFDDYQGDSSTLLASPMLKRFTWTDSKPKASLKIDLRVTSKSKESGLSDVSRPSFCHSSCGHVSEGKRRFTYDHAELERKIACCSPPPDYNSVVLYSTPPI
pIC50: −log10 of the molar value.
Property measured: pIC50

smiles_notation=Cc1ccc(Nc2nccc(N(C)c3ccc4[nH]ccc4c3)n2)cc1S(N)(=O)=O property_measured=pIC50 result=8.52

----------
molecular target: PDGFRα (Homo sapiens, UniProt P16234)
Sequence (P16234 24-1089): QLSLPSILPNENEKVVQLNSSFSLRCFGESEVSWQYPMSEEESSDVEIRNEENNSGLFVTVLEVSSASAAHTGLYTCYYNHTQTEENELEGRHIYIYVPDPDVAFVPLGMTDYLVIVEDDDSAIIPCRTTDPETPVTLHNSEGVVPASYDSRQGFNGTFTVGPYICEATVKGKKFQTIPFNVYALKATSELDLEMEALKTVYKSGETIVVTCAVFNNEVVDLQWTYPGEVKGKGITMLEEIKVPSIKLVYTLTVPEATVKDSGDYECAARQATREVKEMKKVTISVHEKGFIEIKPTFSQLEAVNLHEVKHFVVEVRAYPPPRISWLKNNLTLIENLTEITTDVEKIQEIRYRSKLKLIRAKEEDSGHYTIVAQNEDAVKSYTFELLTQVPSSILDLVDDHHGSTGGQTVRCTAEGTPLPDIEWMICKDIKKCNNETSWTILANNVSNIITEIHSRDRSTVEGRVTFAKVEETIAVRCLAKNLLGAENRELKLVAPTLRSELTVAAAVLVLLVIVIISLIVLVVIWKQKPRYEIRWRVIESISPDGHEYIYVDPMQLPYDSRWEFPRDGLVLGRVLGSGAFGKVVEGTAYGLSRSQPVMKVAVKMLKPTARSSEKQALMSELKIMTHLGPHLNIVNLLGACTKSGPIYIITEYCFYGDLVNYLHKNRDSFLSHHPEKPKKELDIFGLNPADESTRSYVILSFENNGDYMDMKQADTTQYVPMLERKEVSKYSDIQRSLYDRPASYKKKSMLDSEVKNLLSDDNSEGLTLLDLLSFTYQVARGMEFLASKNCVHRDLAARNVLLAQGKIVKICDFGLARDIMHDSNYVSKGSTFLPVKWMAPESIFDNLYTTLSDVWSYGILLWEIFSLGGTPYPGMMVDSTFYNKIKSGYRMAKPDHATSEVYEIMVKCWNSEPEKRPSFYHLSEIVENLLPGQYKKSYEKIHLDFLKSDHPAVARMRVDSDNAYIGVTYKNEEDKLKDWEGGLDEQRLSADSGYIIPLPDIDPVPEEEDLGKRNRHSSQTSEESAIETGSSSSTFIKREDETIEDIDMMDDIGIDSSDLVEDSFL
pIC50: −log10 of the molar value.
Property measured: pIC50

compound="Cc1ccc(Nc2nccc(N(C)c3ccc4[nH]ccc4c3)n2)cc1S(N)(=O)=O [MKP101]" result=6.79

----------
molecular target: PDGFRα (Homo sapiens); construct: purchased Millipore UK Ltd., Dundee, UK (now Eurofins Scientific); KinaseProfiler / IC50 Profiler service; assay: In vitro kinase assay, PDGFRα; assay type: biochemical; conditions: 1 μM, mean ± S.D.; read-out: % inhibition at 1 μM, PDGFRα (h)
Property measured: inhibition at 1 µM

smiles_notation=Cc1ccc(Nc2nccc(Oc3ccc4[nH]ccc4c3)n2)cc1S(N)(=O)=O target_entity="PDGFRα (Homo sapiens)" result=87%
smiles_notation=Cc1ccc(Nc2cc(Oc3ccc4[nH]ccc4c3)ncn2)cc1S(N)(=O)=O target_entity="PDGFRα (Homo sapiens)" result=30%
smiles_notation=Cc1ccc(Nc2nccc(N(C)c3ccc4[nH]ccc4c3)n2)cc1S(N)(=O)=O target_entity="PDGFRα (Homo sapiens)" result=93%
smiles_notation=COc1ccc(Nc2cc(Oc3ccc4[nH]ccc4c3)ncn2)cc1N1CCOCC1 target_entity="PDGFRα (Homo sapiens)" result=37%

----------
Measured inhibition at 1 µM, listed per entry for reference.
Biological target: VEGFR-2 (Homo sapiens, UniProt P35968)
Construct: purchased Millipore UK Ltd., Dundee, UK (now Eurofins Scientific); KinaseProfiler / IC50 Profiler service
Sequence (P35968 20-1356): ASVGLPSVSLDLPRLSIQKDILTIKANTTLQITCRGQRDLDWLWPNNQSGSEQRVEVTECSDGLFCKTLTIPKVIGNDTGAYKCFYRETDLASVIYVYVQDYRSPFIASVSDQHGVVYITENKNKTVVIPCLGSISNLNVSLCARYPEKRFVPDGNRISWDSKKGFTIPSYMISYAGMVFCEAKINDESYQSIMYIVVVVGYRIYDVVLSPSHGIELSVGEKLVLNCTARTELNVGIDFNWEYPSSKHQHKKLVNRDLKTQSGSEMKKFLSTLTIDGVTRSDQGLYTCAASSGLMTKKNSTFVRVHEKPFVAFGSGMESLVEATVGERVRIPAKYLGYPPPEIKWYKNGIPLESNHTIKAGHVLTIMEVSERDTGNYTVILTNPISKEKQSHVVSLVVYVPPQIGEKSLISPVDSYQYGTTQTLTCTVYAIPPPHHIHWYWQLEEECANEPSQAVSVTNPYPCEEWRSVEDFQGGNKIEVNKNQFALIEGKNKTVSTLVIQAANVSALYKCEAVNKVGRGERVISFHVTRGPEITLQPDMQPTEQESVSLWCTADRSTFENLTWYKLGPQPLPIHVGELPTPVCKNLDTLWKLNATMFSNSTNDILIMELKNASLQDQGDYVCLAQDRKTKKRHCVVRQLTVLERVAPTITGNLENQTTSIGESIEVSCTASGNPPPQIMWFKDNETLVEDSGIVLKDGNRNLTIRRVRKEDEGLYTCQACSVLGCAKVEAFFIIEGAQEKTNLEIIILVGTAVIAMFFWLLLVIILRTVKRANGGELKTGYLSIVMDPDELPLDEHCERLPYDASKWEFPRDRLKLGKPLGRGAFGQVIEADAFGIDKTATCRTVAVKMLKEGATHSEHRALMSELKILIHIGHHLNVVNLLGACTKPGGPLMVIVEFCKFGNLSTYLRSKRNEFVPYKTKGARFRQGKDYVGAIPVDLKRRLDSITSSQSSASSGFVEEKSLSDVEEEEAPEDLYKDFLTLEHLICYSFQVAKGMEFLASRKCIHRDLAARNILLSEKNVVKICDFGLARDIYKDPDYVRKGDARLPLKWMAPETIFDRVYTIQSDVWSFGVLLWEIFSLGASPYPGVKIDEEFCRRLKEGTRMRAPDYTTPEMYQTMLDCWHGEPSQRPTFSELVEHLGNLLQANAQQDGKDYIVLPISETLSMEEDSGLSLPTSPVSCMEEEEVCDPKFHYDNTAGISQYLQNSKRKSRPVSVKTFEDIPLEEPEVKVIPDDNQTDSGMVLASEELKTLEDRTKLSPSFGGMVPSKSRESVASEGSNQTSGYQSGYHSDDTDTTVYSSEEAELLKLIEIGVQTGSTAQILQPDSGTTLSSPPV
Experiment: In vitro kinase assay, VEGFR-2
Format: biochemical
Conditions: 1 μM, mean ± S.D.; read-out: % inhibition at 1 μM, VEGFR-2 (h)
Procedure: All kinase assays were carried out using KinaseProfiler^TM and IC50 Profiler^TM (Millipore UK Ltd., Dundee, UK. Now Eurofins Scientific, Dundee, UK). All IC50 data were presented as the mean values. The Curves obtained to determine IC50 values were shown in Supporting Information (S1 Fig).
Property measured: inhibition at 1 µM (%)

smiles_notation=Cc1ccc(Nc2nccc(Oc3ccc4[nH]ccc4c3)n2)cc1S(N)(=O)=O readout_units=% result=96
smiles_notation=COc1ccc(Nc2cc(Oc3ccc4[nH]ccc4c3)ncn2)cc1N1CCOCC1 readout_units=% result=96
smiles_notation=Cc1ccc(Nc2cc(Oc3ccc4[nH]ccc4c3)ncn2)cc1S(N)(=O)=O readout_units=% result=97
smiles_notation=Cc1ccc(Nc2nccc(N(C)c3ccc4[nH]ccc4c3)n2)cc1S(N)(=O)=O readout_units=% result=94

----------
Molecular target: cKit (Homo sapiens, UniProt P10721)
Construct: purchased Millipore UK Ltd., Dundee, UK (now Eurofins Scientific); KinaseProfiler / IC50 Profiler service
Sequence (P10721 26-976): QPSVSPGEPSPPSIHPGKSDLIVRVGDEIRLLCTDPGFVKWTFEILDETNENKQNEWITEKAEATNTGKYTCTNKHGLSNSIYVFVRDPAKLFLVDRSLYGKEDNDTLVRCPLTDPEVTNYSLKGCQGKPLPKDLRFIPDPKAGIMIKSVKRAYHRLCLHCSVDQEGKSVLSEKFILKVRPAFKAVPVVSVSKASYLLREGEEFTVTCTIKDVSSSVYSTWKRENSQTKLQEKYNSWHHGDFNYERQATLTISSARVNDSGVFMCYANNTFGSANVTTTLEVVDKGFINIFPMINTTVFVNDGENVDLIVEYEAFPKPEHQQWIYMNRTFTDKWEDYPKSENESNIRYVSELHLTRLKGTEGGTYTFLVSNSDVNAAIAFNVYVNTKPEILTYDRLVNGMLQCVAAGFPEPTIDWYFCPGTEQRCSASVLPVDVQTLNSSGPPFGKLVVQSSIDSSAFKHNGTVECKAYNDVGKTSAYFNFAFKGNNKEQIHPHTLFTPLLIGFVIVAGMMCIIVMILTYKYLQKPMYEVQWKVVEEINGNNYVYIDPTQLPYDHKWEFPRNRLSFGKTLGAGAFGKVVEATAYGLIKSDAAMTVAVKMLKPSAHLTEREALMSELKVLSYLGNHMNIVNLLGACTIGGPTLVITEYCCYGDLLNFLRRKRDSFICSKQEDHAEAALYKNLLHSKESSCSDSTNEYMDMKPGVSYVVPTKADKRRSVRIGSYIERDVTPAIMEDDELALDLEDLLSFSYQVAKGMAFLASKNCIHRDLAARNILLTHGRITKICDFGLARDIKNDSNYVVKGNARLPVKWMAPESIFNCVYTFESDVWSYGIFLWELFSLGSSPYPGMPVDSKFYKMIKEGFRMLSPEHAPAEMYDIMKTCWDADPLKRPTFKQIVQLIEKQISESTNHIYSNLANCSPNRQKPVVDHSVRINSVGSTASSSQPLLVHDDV
Experiment: In vitro kinase assay, cKit
Format: biochemical
Conditions: 1 μM, mean ± S.D.; read-out: % inhibition at 1 μM, cKit(h)
Procedure: All kinase assays were carried out using KinaseProfiler^TM and IC50 Profiler^TM (Millipore UK Ltd., Dundee, UK. Now Eurofins Scientific, Dundee, UK). All IC50 data were presented as the mean values. The Curves obtained to determine IC50 values were shown in Supporting Information (S1 Fig).
Property measured: inhibition at 1 µM (%)

smiles_notation=Cc1ccc(Nc2cc(Oc3ccc4[nH]ccc4c3)ncn2)cc1S(N)(=O)=O result=53
smiles_notation=Cc1ccc(Nc2nccc(Oc3ccc4[nH]ccc4c3)n2)cc1S(N)(=O)=O result=99
smiles_notation=Cc1ccc(Nc2nccc(N(C)c3ccc4[nH]ccc4c3)n2)cc1S(N)(=O)=O result=99
smiles_notation=COc1ccc(Nc2cc(Oc3ccc4[nH]ccc4c3)ncn2)cc1N1CCOCC1 result=70
